The following compounds are listed with their measured TGI values.
Test system: SR leukemia
Test: NCI tumour cell line growth inhibition, 48 h
MEASURE: TGI

INSERT INTO measurements (compound, measure, measured_value) VALUES
  ('COc1cccc(-n2nc(C)c3c(N/N=C(\C)c4ccncc4)ncnc32)c1', 'TGI', '> 25 µM'),
  ('C1=CC=C2NCCCCCCCNC3=CC=CC=CC3=NCCCCCCCN=C2C=C1', 'TGI', '> 100 µM'),
  ('Cc1ccc(SSc2ccc(C)cc2C(=O)O)c(C(=O)O)c1', 'TGI', '> 100 µM'),
  ('CCOC(=O)c1cn2c(n1)sc1c(Cl)c(Cl)ccc12', 'TGI', '> 55.2 µM'),
  ('Nc1nc(SCc2ccc([N+](=O)[O-])cc2)nc2c1ncn2C1OC(CO)C(O)C1O (stereo unspecified)', 'TGI', '> 100 µM'),
  ('O=S(=O)(O)C(=Nc1cccc(Cc2ccccc2)c1)Nc1cccc(Cc2ccccc2)c1', 'TGI', '69.7 µM');

* * *

Tested on: NCI/ADR-RES ovarian
Test: NCI tumour cell line growth inhibition, 48 h
MEASURE: TGI

INSERT INTO measurements (compound, target_or_test_system, measure, measured_value) VALUES
  ('CCn1c(-c2ccc(N=NNc3ccc(-c4n[nH]c(=S)n4CC)cc3)cc2)n[nH]c1=S', 'NCI/ADR-RES ovarian', 'TGI', '> 100 µM'),
  ('CC1OC(n2c3ccccc3c3c4c(c5c6ccccc6[nH]c5c32)C(=O)N(CCN[C@@H]2CCC[C@H]2N)C4=O)CC(O)C1O (some centres not stated)', 'NCI/ADR-RES ovarian', 'TGI', '> 50 µM'),
  ('C[C@@H](c1ccccc1)N1CN(C(=O)OCc2ccccc2)C(C)(C)CC1=O', 'NCI/ADR-RES ovarian', 'TGI', '> 100 µM'),
  ('COc1cc(NC(C)CCCN)c2ncccc2c1 (configuration not stated)', 'NCI/ADR-RES ovarian', 'TGI', '> 100 µM'),
  ('COc1ccc(-n2c(=O)[nH]n(C(C)=O)c2=O)cc1', 'NCI/ADR-RES ovarian', 'TGI', '> 100 µM'),
  ('O=C(/C=C/c1ccc(O)c(-c2cc(C(=O)/C=C/c3ccc(O)cc3)c(O)cc2O)c1)c1ccc(O)cc1O', 'NCI/ADR-RES ovarian', 'TGI', '> 50 µM'),
  ('Cn1c2ccc3cc2c(=S)c2cc(ccc21)OCCOCCOCCOCCOCCO3', 'NCI/ADR-RES ovarian', 'TGI', '> 10 µM'),
  ('Cc1c(N2C(=O)CS(=O)(=O)C2c2cccc(Oc3ccccc3)c2)c(=O)n(-c2ccccc2)n1C (configuration not stated)', 'NCI/ADR-RES ovarian', 'TGI', '> 100 µM'),
  ('CC(=O)OCC1OC(OC2CC3C(C)(C)C(OC(C)=O)CC[C@]3(C)C3CCC45CC4(CCC5[C@@H](C)C[C@H](O)C(O)C(C)(C)O)[C@]23C)C(O)C(O)C1O (some centres not stated)', 'NCI/ADR-RES ovarian', 'TGI', '> 10 µM'),
  ('COc1ccc(CC(=O)N2CCC3(C)CC(=O)CC=C23)cc1OC (configuration not stated)', 'NCI/ADR-RES ovarian', 'TGI', '> 100 µM'),
  ('COc1cc2ccccc2oc1=O', 'NCI/ADR-RES ovarian', 'TGI', '> 100 µM'),
  ('O=C(Cn1c(=O)c(-c2ccccc2)nc2ccccc21)Nc1ccc(F)cc1', 'NCI/ADR-RES ovarian', 'TGI', '> 100 µM');

* * *

Test system: NCI-H460 lung
Assay: NCI tumour cell line growth inhibition, 48 h
The following molecules are listed with their measured TGI values.
MEASURE: TGI

INSERT INTO assay_data (molecule, target_or_test_system, measured_value) VALUES
  ('COc1cc2c(cc1OC)C(=O)/C(=C/c1ccc(Cl)cc1)CC2', 'NCI-H460 lung', '> 10 µM'),
  ('N#Cc1c(-c2ccc([N+](=O)[O-])cc2)c(C#N)c(=O)n(NS(=O)(=O)c2ccccc2)c1-c1ccccc1', 'NCI-H460 lung', '> 100 µM'),
  ('COC1OC(CBr)C(OC(=O)c2ccccc2)C(O)C1Br (stereo not drawn)', 'NCI-H460 lung', '> 100 µM'),
  ('CC1CC2OC(=O)C(C)C2CC2(C)C(OC3OC(CO)C(O)C(O)C3O)OCCC12 (stereo not drawn)', 'NCI-H460 lung', '> 100 µM'),
  ('O=C(CCc1ccc(O)c(O)c1)NCCc1cc(O)cc(O)c1', 'NCI-H460 lung', '> 100 µM'),
  ('O=C(C[n+]1ccc2ccccc2c1)c1ccc2ccc3ccccc3c2c1', 'NCI-H460 lung', '5.85 µM'),
  ('COc1cccc(-c2nn(-c3ccccc3)cc2-c2ccnc(NCCCNC(=O)Nc3ccc(Cl)c(Cl)c3)c2)c1', 'NCI-H460 lung', '14.7 µM'),
  ('CCC1CN(C(=O)c2ccccc2)C(Cc2c[nH]c3ccccc23)C(=O)C1CC(=O)OC (stereo not drawn)', 'NCI-H460 lung', '> 100 µM');

* * *

Tested on: CAKI-1 renal
Test: NCI tumour cell line growth inhibition, 48 h
The following compounds are listed with their measured TGI values.
MEASURE: TGI

INSERT INTO assay_data (compound, measured_value) VALUES
  ('COc1ccc(/C=C/C(=O)c2ccc(O)c(CN3CCN(c4cc5c(cc4F)c(=O)c(C(=O)O)cn5C4CC4)CC3)c2)cc1', '> 100 µM'),
  ('CCOC(=O)c1nc2ccccc2nc1NCc1cc(OC)c(OC)c(OC)c1', '> 100 µM'),
  ('COc1ccc(C2CC(C)(O)Oc3cc4c(cc32)OCO4)cc1 (centres undefined)', '> 100 µM'),
  ('CN1CCN(c2ncc3c(n2)sc2c(=O)n(-c4ccccc4)cnc23)CC1', '> 100 µM');
